Kindly state area over the GR curve for each of the entries shown.
Tested on: BT20
Test: area over the GR curve, 72 h; higher = more effect
One number for each entry, in GR.

COMPOUND	UNIT ABBREVIATION	area over the GR curve
CC1(N)CCN(c2cnc(-c3cccc(Cl)c3Cl)c(N)n2)CC1 [SHP099] (max 10 µM)	GR	0.0072
NC1(C(=O)N[C@@H](CCO)c2ccc(Cl)cc2)CCN(c2nc[nH]c3nccc2-3)CC1 [AZD5363] (max 10 µM)	GR	0.298
CN1CCN(CCOc2cc(OC3CCOCC3)c3c(Nc4c(Cl)ccc5c4OCO5)ncnc3c2)CC1 [Saracatinib/AZD0530] (max 10 µM)	GR	0.159

Look at this compound and give its reported area over the GR curve. CCN1CCN(Cc2ccc(Nc3ncc(F)c(-c4cc(F)c5nc(C)n(C(C)C)c5c4)n3)nc2)CC1 (max 10 µM)
0.569

###

Kindly state area over the GR curve for each of the entries shown.
Tested on: MDAMB175VII
Test: area over the GR curve, 72 h; higher = more effect
One number for each entry, in GR.

Answered cases to consult:
MOLECULE	ASSAY READOUT	READOUT VALUE
CCc1cncnc1N1CCN(Cc2nc3ccc(C(F)(F)F)cc3[nH]2)CC1 (max 10 µM)	area over the GR curve	0.314
Cc1nc(NC(=O)N2CCC[C@H]2C(N)=O)sc1-c1ccnc(C(C)(C)C(F)(F)F)c1 [Alpelisib/BYL719] (max 10 µM)	area over the GR curve	0.563
CC(C)n1nc(-c2ccc3oc(N)nc3c2)c2c(N)ncnc21 [INK128/MLN0128] (max 3.162 µM)	area over the GR curve	1.17

Turning now to a further record.
Look at this molecule and give its reported area over the GR curve. COc1ccc2c(c1)[C@]1(C[C@H]1c1ccc3c(/C=C/c4ccc(CN5C[C@@H](C)O[C@@H](C)C5)cc4)n[nH]c3c1)C(=O)N2
0.589

###

System: HCC1569
Assay: GRmax, 72 h; higher = less effect
Kindly state GRmax, 72 h for each of the entries shown.
Numbers only, in GR.

Answered cases to consult:
COMPOUND	GRmax, 72 h (GR)
CCOc1cc2ncc(C#N)c(Nc3ccc(OCc4ccccn4)c(Cl)c3)c2cc1NC(=O)/C=C/CN(C)C [Neratinib/HKI272] (max 3.162 µM)	0.117
CN1CC[C@H](c2c(O)cc(O)c3c(=O)cc(-c4ccccc4Cl)oc23)[C@H](O)C1 [Flavopiridol] (max 1 µM)	-0.177
O=C(CCCCCCC(=O)Nc1ccccc1)NO [Vorinostat] (max 10 µM)	-0.294

Hi, could you look up GRmax, 72 h for each item in my list?
1. Cc1cc(Nc2ncc(Cl)c(Nc3ccccc3S(=O)(=O)C(C)C)n2)c(OC(C)C)cc1C1CCNCC1 [Ceritinib/LDK378] (max 10 µM)
2. COc1cc2nccc(Oc3ccc(NC(=O)C4(C(=O)Nc5ccc(F)cc5)CC4)cc3)c2cc1OC [Cabozantinib] (max 10 µM)
3. CN(C)C/C=C/C(=O)Nc1ccc(C(=O)N2CCC[C@@H](Nc3ncc(Cl)c(-c4c[nH]c5ccccc45)n3)C2)cc1 [THZ531] (max 1 µM)
4. CC(C)n1nc(-c2ccc3oc(N)nc3c2)c2c(N)ncnc21 [INK128/MLN0128] (max 3.162 µM)

[-0.83, 0.723, -0.155, 0.088]

###

Kindly state GRmax, 72 h for each of the entries shown.
System: MGH312
Experiment: GRmax, 72 h; higher = less effect
Answers are plain numbers, in GR.

Answered cases to consult:
MOLECULE	UNIT ABBREVIATION	GRmax, 72 h
CN(C)C/C=C/C(=O)Nc1ccc(C(=O)N2CCC[C@@H](Nc3ncc(Cl)c(-c4c[nH]c5ccccc45)n3)C2)cc1 [THZ531] (max 1 µM)	GR	-0.947
CC(=O)c1c(C)c2cnc(Nc3ccc(N4CCN(CCOCCOCCOCCNC(=O)COc5cccc6c5C(=O)N(C5CCC(=O)NC5=O)C6=O)CC4)cn3)nc2n(C2CCCC2)c1=O (stereo not drawn) [BSJ-03-123] (max 10 µM)	GR	-0.894

Look at this molecule and give its reported GRmax, 72 h. NC(=O)Nc1cc(-c2cccc(F)c2)sc1C(=O)N[C@H]1CCCNC1 [AZD7762] (max 10 µM)
-0.515

###

Tested on: MDAMB330
Test: GRmax, 72 h; higher = less effect
ASSAY READOUT: GRmax, 72 h
In your response, the unit should come after the numeric value.

Answered cases to consult:
COMPOUND	ASSAY READOUT	READOUT VALUE
NC1(C(=O)N[C@@H](CCO)c2ccc(Cl)cc2)CCN(c2nc[nH]c3nccc2-3)CC1 [AZD5363] (max 10 µM)	GRmax, 72 h	-0.643 GR
CC(C)NC[C@@H](C(=O)N1CCN(c2ncnc3c2[C@H](C)C[C@H]3O)CC1)c1ccc(Cl)cc1 [Ipatasertib/GDC0068] (max 10 µM)	GRmax, 72 h	-0.657 GR
CN(C)C/C=C/C(=O)Nc1ccc(C(=O)N2CCC[C@@H](Nc3ncc(Cl)c(-c4c[nH]c5ccccc45)n3)C2)cc1 [THZ531] (max 1 µM)	GRmax, 72 h	-0.968 GR
Cc1cc(C(C)Nc2ccccc2)c2nc(N3CCOCC3)cc(=O)n2c1 (stereo not given) [TGX221] (max 10 µM)	GRmax, 72 h	0.858 GR

Hi, could you look up GRmax, 72 h for each item in my list?
1. C=CC(=O)Nc1ccc(C(=O)Nc2[nH]nc3c2CN(C(=O)N[C@H](CN(C)C)c2ccccc2)C3(C)C)cc1 [YKL-5-124] (max 10 µM)
2. COc1cccc2c1C(=O)c1c(O)c3c(c(O)c1C2=O)C[C@@](O)(C(=O)CO)C[C@@H]3O[C@H]1C[C@H](N)[C@H](O)[C@H](C)O1 [Doxorubicin] (max 3.162 µM)
3. CCN1CCN(Cc2ccc(Nc3ncc(F)c(-c4cc(F)c5nc(C)n(C(C)C)c5c4)n3)nc2)CC1 (max 10 µM)

1. -0.765 GR
2. -0.205 GR
3. -0.0152 GR

###

Tested on: HCC1143
Test: area over the GR curve, 72 h; higher = more effect;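 note: Dye Drop or Deep Dye Drop imaging of viable cells in 384-well plates (Hoechst nuclei, LIVE/DEAD dye), nine half-log doses, GR normalized to DMSO controls and time-zero plates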
Lab note: anything with area over the GR curve at or over 0.3 GR counts as yes; the rest go in no.

COMPOUND	ASSAYED TARGET	GROUP
CN1CC[C@H](c2c(O)cc(O)c3c(=O)cc(-c4ccccc4Cl)oc23)[C@H](O)C1 [Flavopiridol] (max 1 µM)	HCC1143	no
CC[C@@H]1C(=O)N(C)c2cnc(Nc3ccc(C(=O)N[C@H]4CC[C@H](N5CCN(CC6CC6)CC5)CC4)cc3OC)nc2N1C(C)C [Volasertib/BI6727] (max 1 µM)	HCC1143	yes
Cc1nn(C)c(COc2ccc(N3CCN(S(=O)(=O)N(C)C)CC3)cc2)c1-c1cccc2c(CCCOc3cccc4ccccc34)c(C(=O)O)n(CCN3CCOCC3)c12 (max 10 µM)	HCC1143	no
Nc1ccc(-c2ccc3ncc4ccc(=O)n(-c5cccc(C(F)(F)F)c5)c4c3c2)cn1 [Torin2] (max 1 µM)	HCC1143	yes
CC(C)Nc1cc(-c2c[nH]c(C(=O)N[C@H](CO)c3cccc(Cl)c3)c2)c(Cl)cn1 [BVD523] (max 10 µM)	HCC1143	no

As a next step, examine the compound that follows.
Is area over the GR curve at least 0.3 GR? Consider COc1cc([C@@H]2c3cc4c(cc3[C@@H](O[C@@H]3O[C@@H]5CO[C@@H](C)O[C@H]5[C@H](O)[C@H]3O)[C@H]3COC(=O)[C@H]23)OCO4)cc(OC)c1O [Etoposide] (max 10 µM)
yes

###

Kindly state GRmax, 72 h for each of the entries shown.
Test system: SUM44PE
Test: GRmax, 72 h; higher = less effect;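 note: breast cell lines in 384-well plates, nine doses across a 10^4 range, Dye Drop imaging of viable cells vs DMSO and time-zero plates, GR 0 means no net growth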
Numbers only, in GR.

COMPOUND	ASSAYED TARGET	GRmax, 72 h / GR
CCN1CCN(Cc2ccc(Nc3ncc(F)c(-c4cc(F)c5nc(C)n(C(C)C)c5c4)n3)nc2)CC1 (max 10 µM)	SUM44PE	-0.763
CC(=O)c1c(C)c2cnc(Nc3ccc(N4CCN(CCOCCOCCOCCNC(=O)COc5cccc6c5C(=O)N(C5CCC(=O)NC5=O)C6=O)CC4)cn3)nc2n(C2CCCC2)c1=O (stereo not drawn) [BSJ-03-123] (max 10 µM)	SUM44PE	0.289
CNc1nc(-c2ccc3c(N)n[nH]c3c2)cc(N2C[C@@H](C(=O)NC3CCCCC3)CC[C@H]2C)n1 (max 10 µM)	SUM44PE	0.166
COc1cc2c(Oc3ccc4[nH]c(C)cc4c3F)ncnc2cc1OCCCN1CCCC1 [Cediranib/AZD2171] (max 10 µM)	SUM44PE	0.417
CC(C)Nc1cc(-c2c[nH]c(C(=O)N[C@H](CO)c3cccc(Cl)c3)c2)c(Cl)cn1 [BVD523] (max 10 µM)	SUM44PE	-0.0062

Hi, could you look up GRmax, 72 h for each item in my list?
1. Cc1nc(Nc2ncc(C(=O)Nc3c(C)cccc3Cl)s2)cc(N2CCN(CCO)CC2)n1 [Dasatinib] (max 10 µM)
2. COc1cccc(OCCCN)c1-c1cc(Nc2cnc(C#N)cn2)n[nH]1
3. Cc1cc(C(C)Nc2ccccc2)c2nc(N3CCOCC3)cc(=O)n2c1 (stereo not drawn) [TGX221] (max 10 µM)
4. Nc1ccc(-c2ccc3ncc4ccc(=O)n(-c5cccc(C(F)(F)F)c5)c4c3c2)cn1 [Torin2] (max 1 µM)
5. CC(=O)Nc1cccc(-n2c(=O)n(C3CC3)c(=O)c3c(Nc4ccc(I)cc4F)n(C)c(=O)c(C)c32)c1 (max 1 µM)

1. 0.47
2. -0.79
3. 1.04
4. -0.556
5. 0.56

Hi, could you look up GRmax, 72 h for each item in my list?
1. Cc1nn(C)c(COc2ccc(N3CCN(S(=O)(=O)N(C)C)CC3)cc2)c1-c1cccc2c(CCCOc3cccc4ccccc34)c(C(=O)O)n(CCN3CCOCC3)c12 (max 10 µM)
2. CNC(=O)c1cccc(-c2ccc3c(N4CCOC[C@@H]4C)nc(N4CCOC[C@@H]4C)nc3n2)c1 [AZD2014] (max 10 µM)
3. O=C1NC(=NCc2cccs2)SC1=Cc1ccc2ncccc2c1 [R0-3306] (max 10 µM)

-0.463
-0.315
-0.266
